Taken from patent US20200339692A1.

subject of test: human PD-L1 (ligand blocking test) (human, UniProt Q9NZQ7 19-238, limits assumed)
Sequence (Q9NZQ7 19-238 limits assumed): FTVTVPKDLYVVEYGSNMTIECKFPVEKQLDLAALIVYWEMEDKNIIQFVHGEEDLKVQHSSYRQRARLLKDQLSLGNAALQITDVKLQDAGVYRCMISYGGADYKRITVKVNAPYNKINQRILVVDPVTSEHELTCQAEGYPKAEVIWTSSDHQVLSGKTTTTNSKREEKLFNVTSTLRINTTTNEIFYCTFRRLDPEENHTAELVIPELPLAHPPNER
procedure text: blocking of human PD-L1/PD-1 binding, PD-L1 10 ug/ml; competitor PD-1
Recorded IC50 values for a group of binders are listed next.

# binder, IC50 / ng/mL
data = [
    ("H5L11 (antibody, human IgG1, kappa, V domains shown, from the HRP00049 mutant library; also called 9-2 H5 and 9-2 L11) VH: QVQLQESGPGLVKPSQTLSLTCTVSGGSISDGSAYWSWIRQHPGKGLEYIGFISRAGSTYNTPSLKGRVTISRDTSKNQFSLKLSSVTAADTAVYYCARSGGWLAPFDYWGRGTLVTVSS VL: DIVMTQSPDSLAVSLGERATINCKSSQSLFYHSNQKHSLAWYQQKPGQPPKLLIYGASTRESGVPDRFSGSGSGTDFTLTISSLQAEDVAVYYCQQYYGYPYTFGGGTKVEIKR", 0.168),
    ("H6L11 (antibody, human IgG1, kappa, V domains shown, also called 9-2 H6 and 9-2 L11) VH: QVQLQESGPGLVKPSQTLSLTCTVSGGSISNDYWTWIRQHPGKGLEYIGFISRAGSTYNTPSLKGRVTISRDTSKNQFSLKLSSVTAADTAVYYCARSGGWLAPFDYWGRGTLVTVSS VL: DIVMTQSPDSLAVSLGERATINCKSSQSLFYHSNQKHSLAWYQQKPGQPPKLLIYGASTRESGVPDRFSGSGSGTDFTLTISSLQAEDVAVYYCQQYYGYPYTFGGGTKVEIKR", 0.29),
    ("H18L61 (antibody, human IgG1, kappa, V domains shown, also called 24D5 H18 and 24D5 L61) VH: QVQLVQSGAEVKKPGASVKVSCKASGYTFTSYWMHWVRQAPGQGLEWMGRISPSSGMAVYNEKFKNRVTMTRDTSTSTVYMELSSLRSEDTAVYYCARGGSSYDYFDYWGQGTTVTVSS VL: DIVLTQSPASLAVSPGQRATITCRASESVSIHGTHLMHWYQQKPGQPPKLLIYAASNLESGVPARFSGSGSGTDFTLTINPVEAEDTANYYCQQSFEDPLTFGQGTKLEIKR", 0.228),
    ("H12L64 (antibody, human IgG1, kappa, V domains shown, from the HRP00052 mutant library; also called 24D5 H12 and 24D5 L64) VH: QVQLVQSGAEVKKPGASVKVSCKASGYTFTSYWMHWVRQAPGQGLEWMGRITPSSGFAMYNEKFKNRVTMTRDTSTSTVYMELSSLRSEDTAVYYCARGGSSYDYFDYWGQGTTVTVSS VL: DIVLTQSPASLAVSPGQRATITCRASESVSIHGTHLMHWYQQKPGQPPKLLIYVASYAASGVPARFSGSGSGTDFTLTINPVEAEDTANYYCQQSFEDPLTFGQGTKLEIKR", 0.215),
]
